# Test system: Hs-578T
# Assay Procedure: NCI tumour cell line growth inhibition, 48 h
Activity calls are given as the source filed them. No stated cut-off is given here; in the data, active = GI50 up to about 1.1 µM and inactive = higher.
Possible outcomes: T = active, F = inactive

- Compound: "Cc1nnc2n1-c1ccccc1-c1[nH]c3ccccc3c1C2"
  Label Class: "F"
- Compound: "O=C(O)c1cc2c(s1)C(=O)c1sccc1C2=O"
  Label Class: "F"
- Compound: "COc1cc(C(=O)N(C(=S)OC23CC4CC(CC(C4)C2)C3)c2ccccc2)cc(OC)c1OC"
  Label Class: "F"
- Compound: "CC[C@@]1(C)CCC2c3ccc(O)cc3CC[C@H]2C1C (stereo partly specified)"
  Label Class: "F"
- Compound: "CCCCC(=O)Oc1ccc2c(C)cc(=O)oc2c1"
  Label Class: "F"
- Compound: "COC(=O)[C@@H](NC(=O)N(CCC#N)CCCN(C(=O)N[C@H](Cc1ccccc1)C(=O)OC)c1ccccc1)C(C)C"
  Label Class: "F"
- Compound: "CC1=NN(C(=O)CSc2nc3ccc(I)cc3c(=O)n2Cc2ccccc2)C(=O)C1"
  Label Class: "F"
- Compound: "CCOP(=O)(/C=C/n1cnc2c(=O)n(C(C)=O)c(N)nc21)OCC"
  Label Class: "F"
- Compound: "N=C1N(S(=O)(=O)c2ccccc2)[C@@H](Cc2ccccc2)[C@H](c2ccccc2)C1(c1ccccc1)c1ccccc1"
  Label Class: "F"
- Compound: "C=CCOC1OC(CO[Si](C)(C)C(C)(C)C)C(OCc2ccccc2)C(OCc2ccccc2)C1OCc1ccccc1 (stereo unspecified)"
  Label Class: "F"
- Compound: "CCOC(=O)c1cc(C2CCN(Cc3ccccc3)C2=O)c(C(=O)C(=[N+]=[N-])C(C)=O)[nH]1 (stereo unspecified)"
  Label Class: "F"
- Compound: "COc1ccc(/C=N/NS(=O)(=O)c2ccc(/C=C3\\NC(=O)N(C)C3=O)cc2)cc1"
  Label Class: "F"
- Compound: "Cc1cc(O)ccc1C1(c2ccc(F)cc2)OC(=O)c2ccccc21 (stereo unspecified)"
  Label Class: "T"
- Compound: "Cc1c(N2C(=O)/C(=C/c3ccc(N(CCC#N)CCC#N)cc3)N=C2c2ccccc2)c(=O)n(-c2ccccc2)n1C"
  Label Class: "F"
- Compound: "N=C(N)NCCCC(NCc1c2ccccc2nc2ccccc12)C(=O)O (stereo unspecified)"
  Label Class: "F"
- Compound: "Cc1cccc2c(=O)c3c(O)cc(O)cc3n(C)c12"
  Label Class: "F"
- Compound: "COc1ccc2c(O)c(S(=O)(=O)c3ccc(C)cc3)c(=O)oc2c1OC"
  Label Class: "F"
- Compound: "COc1cc(/C=C2\\CN(C)CC3=C2N=C(S)NC3c2cc(OC)c(OC)c(OC)c2)cc(OC)c1OC (stereo unspecified)"
  Label Class: "F"
- Compound: "NC(CC(O)(c1ccccc1)c1ccccc1)c1ccccc1S (stereo unspecified)"
  Label Class: "F"
- Compound: "Clc1cc(Cl)c2cc3cccc[n+]3cc2c1Cl"
  Label Class: "F"
- Compound: "CC(C)NCCC(O)c1cc2ccccc2o1 (stereo unspecified)"
  Label Class: "F"
- Compound: "CSCCC(NCc1c(O)ccc2ccc(=O)oc12)C(=O)O (stereo unspecified)"
  Label Class: "F"
- Compound: "COc1cc([N+](=O)[O-])cc2c1NC(=O)C2(C)SC (stereo unspecified)"
  Label Class: "F"
- Compound: "CC(C)CC1C(=O)NCCC(NC(=O)C(N)Cc2ccc(O)cc2)C(=O)NC(Cc2ccccc2)C(=O)NC(Cc2ccccc2)NC1=O (stereo unspecified)"
  Label Class: "T"
- Compound: "COc1cc2c(/C=C3/C(=O)N(C)c4ccc(O)cc43)c(Cl)[nH]c2cc1C"
  Label Class: "T"
- Compound: "COc1cccc(C2c3cc4c(cc3OC(C)(N3CCCC3)C2C)OCO4)c1O (stereo unspecified)"
  Label Class: "F"
- Compound: "CC(C)(C)OC(=O)N/N=C(/N)Cc1ccc(Cl)cc1"
  Label Class: "F"
- Compound: "CS(=O)(=O)CCC1CCC(=O)O1 (stereo unspecified)"
  Label Class: "F"
- Compound: "O=C(NC(=S)Nc1ccc(Br)cc1)c1ccc2c(c1)Sc1ccccc1O2"
  Label Class: "F"
- Compound: "Cc1ccc(S(=O)(=O)NCCSS(=O)(=O)c2ccc(C)cc2)cc1"
  Label Class: "F"
- Compound: "CCN1CC2(COC)C(O)CC(OC)C34C5CC6(O)C(OC)C=C(C5C6OC(=O)c5ccc(OC)c(OC)c5)C(C(OC)C23)C14 (stereo unspecified)"
  Label Class: "F"
